Test system: Plasmodium berghei
experiment-description: Luciferase/luciferin-expressing antifolate-resistant parasites were used to infect a culture of HepG2 cells that were pre-incubated with compounds. Infected hepatocytes emit light due to the luciferase reaction. Assay results are presented as the percent inhibition of light emission compared to control. […]
Type: functional
particulars: sporozoite, FFLUC_HILL_SLOPE 6.17, FFLUC_R_SQUARED 0.111, PBLUC_HILL_SLOPE 1.25, PBLUC_R_SQUARED 0.907, read-out: LUCIFERASE INFECTION ASSAY - IC50
outcome-measure: pIC50
# log scale: pIC50 equals minus log10 of the concentration in mol/L

Task: Lab note: Plasmodium berghei assay, enter pIC50 for "O=C(Nc1ncccc1O)c1ccc(N2CCOCC2)nc1" here
Result: 6.15

====

Test system: Plasmodium berghei
experiment-description: Luciferase/luciferin-expressing antifolate-resistant parasites were used to infect a culture of HepG2 cells that were pre-incubated with compounds. Infected hepatocytes emit light due to the luciferase reaction. Assay results are presented as the percent inhibition of light emission compared to control. […]
Type: functional
particulars: sporozoite, FFLUC_HILL_SLOPE 49.5, FFLUC_R_SQUARED 0.839, HEPG2TOX_HILL_SLOPE 4, HEPG2TOX_R_SQUARED 0.152, PBLUC_HILL_SLOPE 1.9, PBLUC_R_SQUARED 0.247, read-out: LUCIFERASE INFECTION ASSAY - IC50
outcome-measure: IC50

Task: Dear colleague, please send me the reported IC50 for "Cc1[nH]c2ccccc2c1C(=O)/C(C#N)=C/c1ccc(-c2ccc(S(=O)(=O)N3CCOCC3)cc2)o1" when you can.
Result: 5.12 µM

====

System: Plasmodium berghei
experiment-description: Luciferase/luciferin-expressing antifolate-resistant parasites were used to infect a culture of HepG2 cells that were pre-incubated with compounds. Infected hepatocytes emit light due to the luciferase reaction. Assay results are presented as the percent inhibition of light emission compared to control. […]
Type: functional
particulars: sporozoite, HEPG2TOX_HILL_SLOPE 2.46, HEPG2TOX_R_SQUARED 0.531, PBLUC_HILL_SLOPE 14.2, PBLUC_R_SQUARED 0.359, read-out: LUCIFERASE INFECTION ASSAY - IC50
outcome-measure: IC50 (nM)
Enter your answer as a number in nM; do not include the unit.

Task: Check the records and state IC50 for "Nc1ccc(-c2cnc3ccc(Cc4ccc(F)cc4)nn23)cn1"
Result: 390

====

Test system: Plasmodium berghei
experiment-description: Luciferase/luciferin-expressing antifolate-resistant parasites were used to infect a culture of HepG2 cells that were pre-incubated with compounds. Infected hepatocytes emit light due to the luciferase reaction. Assay results are presented as the percent inhibition of light emission compared to control. […]
Assay type: functional
particulars: sporozoite, FFLUC_HILL_SLOPE 11.6, FFLUC_R_SQUARED 0.516, HEPG2TOX_HILL_SLOPE 7.73, HEPG2TOX_R_SQUARED 0.736, read-out: LUCIFERASE INFECTION ASSAY - IC50
pIC50: −log10 of the molar value.
outcome-measure: pIC50

Task: Query pIC50 for "O=C(/C(=C/c1ccc(F)cc1)c1ccc(-c2ccccc2)cc1)N1CCN(c2ccccc2Cl)CC1"
Result: < 5.00

====

Test system: Plasmodium berghei
experiment-description: Luciferase/luciferin-expressing antifolate-resistant parasites were used to infect a culture of HepG2 cells that were pre-incubated with compounds. Infected hepatocytes emit light due to the luciferase reaction. Assay results are presented as the percent inhibition of light emission compared to control. […]
Format: functional
particulars: sporozoite, HEPG2TOX_HILL_SLOPE 3.52, HEPG2TOX_R_SQUARED 0.659, PBLUC_HILL_SLOPE 0.979, PBLUC_R_SQUARED 0.275, read-out: LUCIFERASE INFECTION ASSAY - IC50
outcome-measure: IC50

Task: For the compound "COc1ccc(O)c(C(=O)c2c[nH]c(C(=O)N3CCCC3)c2)c1" , give its reported IC50.
Result: > 10 µM
